B1: LINE1-full (parent)
chain: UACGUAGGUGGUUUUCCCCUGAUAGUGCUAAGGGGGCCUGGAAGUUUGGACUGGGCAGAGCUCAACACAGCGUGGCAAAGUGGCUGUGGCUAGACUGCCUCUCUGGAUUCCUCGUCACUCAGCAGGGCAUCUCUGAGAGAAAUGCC

Variants of: B1
TEST NAME: self-cleavage, relative activity (ratio to wild type); higher = more cleavage; in vitro, sequencing; the parent is a self-cleaving ribozyme
Each entry gets N if its self-cleavage stays under 0.8, and Y if its self-cleavage is 0.8 or above.

Please review the following examples before continuing.
MUTANT NAME: A92G U109A
CLASS LABEL: N
//
MUTANT NAME: U13C G114A
CLASS LABEL: Y

We next turn to a different variant, shown below.
Please tell me: is the variant A67C A94G at or over 0.8 in terms of self-cleavage?
N
